The reported measurements were obtained from ChEMBL document CHEMBL4814016.

# Method: Metabolic stability in rat liver microsomes assessed as parent compound remaining measured after 30 mins
# Type: ADME, Microsome
# Settings: read-out: Stabilty
Experimental readout: remaining at 0.5 h (%)

>>> print(df.to_string())
                            chemical_smiles  value_reported
0  C[C@@]1(c2cc(NC(=O)c3ccc(C#N)cn3)ccc2F)Cc2c(ccnc2F)C(N)=N1              22

----------
# Target entity: hERG (KCNH2) (Homo sapiens)
# Sequence (Q12809 whole entry): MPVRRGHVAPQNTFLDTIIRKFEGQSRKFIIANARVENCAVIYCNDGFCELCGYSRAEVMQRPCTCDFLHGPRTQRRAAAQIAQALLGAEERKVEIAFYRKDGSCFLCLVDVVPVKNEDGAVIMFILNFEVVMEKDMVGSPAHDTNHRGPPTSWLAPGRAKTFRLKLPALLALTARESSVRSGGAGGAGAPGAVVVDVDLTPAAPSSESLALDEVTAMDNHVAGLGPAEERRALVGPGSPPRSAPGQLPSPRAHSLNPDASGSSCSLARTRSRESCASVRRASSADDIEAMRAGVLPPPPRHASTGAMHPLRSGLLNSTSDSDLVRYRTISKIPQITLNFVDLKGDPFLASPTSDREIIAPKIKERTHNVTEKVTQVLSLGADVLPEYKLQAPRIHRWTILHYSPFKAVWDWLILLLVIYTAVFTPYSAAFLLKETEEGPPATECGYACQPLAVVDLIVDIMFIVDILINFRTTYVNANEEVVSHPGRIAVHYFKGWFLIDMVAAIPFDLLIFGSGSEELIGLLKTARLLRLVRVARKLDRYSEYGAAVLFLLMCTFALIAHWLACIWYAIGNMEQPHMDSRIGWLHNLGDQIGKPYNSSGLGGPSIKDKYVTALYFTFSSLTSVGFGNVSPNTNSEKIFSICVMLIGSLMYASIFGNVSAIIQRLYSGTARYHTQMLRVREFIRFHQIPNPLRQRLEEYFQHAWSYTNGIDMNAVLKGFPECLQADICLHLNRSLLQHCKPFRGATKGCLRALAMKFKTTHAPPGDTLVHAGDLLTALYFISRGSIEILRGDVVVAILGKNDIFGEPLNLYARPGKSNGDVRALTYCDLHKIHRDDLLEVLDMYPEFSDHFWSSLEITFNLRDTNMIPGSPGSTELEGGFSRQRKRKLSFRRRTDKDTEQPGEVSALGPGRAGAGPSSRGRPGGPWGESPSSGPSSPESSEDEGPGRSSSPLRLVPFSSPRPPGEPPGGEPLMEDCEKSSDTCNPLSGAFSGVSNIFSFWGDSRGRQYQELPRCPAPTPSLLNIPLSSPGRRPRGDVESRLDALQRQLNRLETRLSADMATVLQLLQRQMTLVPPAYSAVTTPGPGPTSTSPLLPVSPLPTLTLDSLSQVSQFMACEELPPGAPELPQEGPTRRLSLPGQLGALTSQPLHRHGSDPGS
# Method: Inhibition of human ERG at 5 uM by automated patch clamp assay relative to control
Experimental readout: inhibition at 5 µM (%)

In [3]: df
Out[3]:
                                   molecule  unit_string  value_reported
0  C[C@@]1(c2cc(NC(=O)c3ccc(C#N)cn3)ccc2F)Cc2c(ccnc2F)C(N)=N1            %              88
1  CC1(c2cc(NC(=O)c3ccc(C#N)cn3)ccc2F)Cc2cncc(F)c2C(N)=N1 (stereo not given)            %              92
2  CC1(c2cc(NC(=O)c3ccc(C#N)cn3)ccc2F)Cc2c(F)cncc2C(N)=N1 (stereo not given)            %              72
3  CC1(c2cc(NC(=O)c3ccc(C#N)cn3)ccc2F)Cc2ccncc2C(N)=N1 (stereo not given)            %              83
4  CC1(c2cc(NC(=O)c3ccc(C#N)cn3)ccc2F)Cc2cnccc2C(N)=N1 (stereo not given)            %              85

----------
# Method: Metabolic stability in Beagle dog liver microsomes assessed as parent compound remaining measured after 30 mins
# Format: ADME, Canis lupus familiaris, Microsome
# Settings: read-out: Stabilty
Experimental readout: remaining at 0.5 h (%)

In [3]: df
Out[3]:
                            chemical_smiles  unit_string  value_reported
0  C[C@@]1(c2cc(NC(=O)c3ccc(C#N)cn3)ccc2F)Cc2c(ccnc2F)C(N)=N1            %              93

----------
# Method: Tmax in rat at 1 mg/kg, po
# Format: ADME, organism-based
# Settings: in vivo
Experimental readout: Tmax (h)

                            chemical_smiles  unit_string  value_reported
0  C[C@@]1(c2cc(NC(=O)c3ccc(C#N)cn3)ccc2F)Cc2c(ccnc2F)C(N)=N1            h               4

----------
# Target entity: Beta-secretase 1 (Homo sapiens)
# Sequence (P56817 whole entry): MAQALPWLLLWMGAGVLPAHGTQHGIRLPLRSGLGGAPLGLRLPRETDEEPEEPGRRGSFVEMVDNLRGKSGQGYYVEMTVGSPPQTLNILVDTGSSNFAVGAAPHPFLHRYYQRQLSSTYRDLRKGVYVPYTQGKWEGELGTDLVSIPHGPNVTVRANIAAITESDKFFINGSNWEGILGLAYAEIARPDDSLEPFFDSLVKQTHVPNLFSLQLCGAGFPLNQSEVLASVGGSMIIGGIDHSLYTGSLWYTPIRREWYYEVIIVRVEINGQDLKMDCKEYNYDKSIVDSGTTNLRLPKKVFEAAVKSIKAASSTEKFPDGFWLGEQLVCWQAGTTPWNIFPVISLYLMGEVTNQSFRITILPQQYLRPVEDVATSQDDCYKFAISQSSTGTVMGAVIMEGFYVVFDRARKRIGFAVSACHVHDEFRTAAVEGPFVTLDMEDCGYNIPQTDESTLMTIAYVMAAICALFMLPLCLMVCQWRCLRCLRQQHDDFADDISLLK
# Method: Inhibition of BACE1 in human SH-SY5Y cells expressing APP assessed as reduction in Abeta40 by HTRF assay
# Assay type: cell-based
pIC50: −log10 of the molar value.
Reported pIC50 values are given for each entry in this list.
Experimental readout: pIC50

>>> df
                                   compound  value_reported
0  CC1(c2cc(NC(=O)c3ccc(C#N)cn3)ccc2F)Cc2cnccc2C(N)=N1 (stereo not drawn)            8.82
1  CC1(c2cc(NC(=O)c3ccc(C#N)cn3)ccc2F)Cc2ncccc2C(N)=N1 (stereo not drawn)            8.39
2  CC1(c2cc(NC(=O)c3ccc(C#N)cn3)ccc2F)Cc2cncc(F)c2C(N)=N1 (stereo not drawn)            7.96
3  CC1(c2cc(NC(=O)c3ccc(C#N)cn3)ccc2F)Cc2ccncc2C(N)=N1 (stereo not drawn)            8.89
4  C[C@@]1(c2cc(NC(=O)c3ccc(C#N)cn3)ccc2F)Cc2c(ccnc2F)C(N)=N1            9.39
5  CC1(c2cc(NC(=O)c3ccc(C#N)cn3)ccc2F)Cc2cccnc2C(N)=N1 (stereo not drawn)            7.59
6  CC1(c2cc(NC(=O)c3ccc(C#N)cn3)ccc2F)Cc2c(F)cncc2C(N)=N1 (stereo not drawn)            9.60
7  CC1(c2cc(NC(=O)c3ccc(C#N)cn3)ccc2F)Cc2c(ccnc2F)C(N)=N1 (stereo not drawn)            9.44

----------
# Method: Fraction unbound in Beagle dog serum
# Format: ADME, cell-free, Canis lupus familiaris
Experimental readout: fraction unbound

In [3]: df
Out[3]:
                            chemical_smiles  value_reported
0  C[C@@]1(c2cc(NC(=O)c3ccc(C#N)cn3)ccc2F)Cc2c(ccnc2F)C(N)=N1            0.14

----------
# Method: Volume of distribution at steady state in rat at 0.5 mg/kg, iv
# Assay type: ADME, organism-based
# Settings: in vivo, read-out: Vdss
Experimental readout: Vd

>>> print(df.to_string())
                            chemical_smiles  experimental_readout  value_reported
0  C[C@@]1(c2cc(NC(=O)c3ccc(C#N)cn3)ccc2F)Cc2c(ccnc2F)C(N)=N1                    Vd         14 L/kg

----------
# Method: Ratio of drug level in Cerebrospinal fluid to plasma in Beagle dog at 1 mg/kg, po measured after 24 hrs
# Format: ADME, organism-based, Canis lupus familiaris, CSF/Plasma
Experimental readout: Kp at 24 h

                            chemical_smiles  experimental_readout  value_reported
0  C[C@@]1(c2cc(NC(=O)c3ccc(C#N)cn3)ccc2F)Cc2c(ccnc2F)C(N)=N1            Kp at 24 h           0.083

----------
# Method: Clearance in rat at 0.5 mg/kg, iv
# Type: ADME, organism-based
# Settings: in vivo
Experimental readout: clearance (mL/min/kg)

>>> print(df.to_string())
                            chemical_smiles  value_reported
0  C[C@@]1(c2cc(NC(=O)c3ccc(C#N)cn3)ccc2F)Cc2c(ccnc2F)C(N)=N1              45

----------
# Target entity: UniProt P08183
# Sequence (P08183 whole entry): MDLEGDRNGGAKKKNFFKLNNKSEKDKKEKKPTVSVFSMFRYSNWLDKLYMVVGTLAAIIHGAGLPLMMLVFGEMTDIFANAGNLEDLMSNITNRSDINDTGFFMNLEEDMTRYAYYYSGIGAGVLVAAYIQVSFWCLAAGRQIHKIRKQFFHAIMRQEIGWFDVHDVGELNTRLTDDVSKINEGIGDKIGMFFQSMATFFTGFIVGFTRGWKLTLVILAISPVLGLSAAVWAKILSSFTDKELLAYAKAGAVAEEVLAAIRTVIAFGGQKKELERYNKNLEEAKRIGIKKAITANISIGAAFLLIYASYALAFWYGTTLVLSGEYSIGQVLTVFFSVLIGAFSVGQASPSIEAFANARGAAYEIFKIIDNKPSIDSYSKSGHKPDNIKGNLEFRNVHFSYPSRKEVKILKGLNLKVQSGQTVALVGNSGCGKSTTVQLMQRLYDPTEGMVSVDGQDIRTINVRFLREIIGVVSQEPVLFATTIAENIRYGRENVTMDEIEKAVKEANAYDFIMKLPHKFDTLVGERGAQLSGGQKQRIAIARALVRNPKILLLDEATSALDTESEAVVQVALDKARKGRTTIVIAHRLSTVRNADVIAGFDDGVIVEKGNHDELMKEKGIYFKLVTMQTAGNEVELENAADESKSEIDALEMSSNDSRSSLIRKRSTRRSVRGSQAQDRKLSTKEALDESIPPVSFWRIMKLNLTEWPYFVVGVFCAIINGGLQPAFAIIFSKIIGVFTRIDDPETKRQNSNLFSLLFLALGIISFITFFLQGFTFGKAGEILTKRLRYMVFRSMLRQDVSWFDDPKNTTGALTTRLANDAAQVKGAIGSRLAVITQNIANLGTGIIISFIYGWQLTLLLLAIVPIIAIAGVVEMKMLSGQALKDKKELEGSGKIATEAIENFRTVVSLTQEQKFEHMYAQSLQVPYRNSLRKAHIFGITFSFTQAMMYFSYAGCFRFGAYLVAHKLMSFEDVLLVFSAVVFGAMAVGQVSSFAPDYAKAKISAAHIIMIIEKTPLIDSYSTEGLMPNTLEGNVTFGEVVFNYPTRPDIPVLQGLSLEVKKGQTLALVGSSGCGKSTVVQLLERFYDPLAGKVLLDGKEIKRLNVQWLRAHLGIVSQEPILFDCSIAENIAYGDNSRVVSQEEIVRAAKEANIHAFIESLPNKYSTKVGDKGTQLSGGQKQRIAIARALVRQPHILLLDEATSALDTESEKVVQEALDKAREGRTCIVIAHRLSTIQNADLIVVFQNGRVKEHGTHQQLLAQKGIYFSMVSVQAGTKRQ
# Method: Substrate activity at P-gp (unknown origin) transfected in LLC-PK1 cells expressing human MDR1 gene assessed as efflux ratio
# Assay type: ADME, cell-based
Experimental readout: efflux ratio

>>> df
                                   compound   target_entity  experimental_readout  value_reported
0  C[C@@]1(c2cc(NC(=O)c3ccc(C#N)cn3)ccc2F)Cc2c(ccnc2F)C(N)=N1  UniProt P08183          efflux ratio              13
1  CC1(c2cc(NC(=O)c3ccc(C#N)cn3)ccc2F)Cc2cnccc2C(N)=N1 (stereo not drawn)  UniProt P08183          efflux ratio              37
2  CC1(c2cc(NC(=O)c3ccc(C#N)cn3)ccc2F)Cc2c(F)cncc2C(N)=N1 (stereo not drawn)  UniProt P08183          efflux ratio              13

----------
# Method: Plasma concentration in Beagle dog at 1 mg/kg, po measured after 10 hrs
# Format: ADME, organism-based, Canis lupus familiaris
Experimental readout: concentration at 10 h

>>> print(df.to_string())
                            chemical_smiles  value_reported
0  C[C@@]1(c2cc(NC(=O)c3ccc(C#N)cn3)ccc2F)Cc2c(ccnc2F)C(N)=N1        64 ng/mL

----------
# Method: Oral bioavailability in rat at 1 mg/kg
# Assay type: ADME, organism-based
# Settings: in vivo
Experimental readout: bioavailability (%)

>>> print(df.to_string())
                            chemical_smiles  unit_string  value_reported
0  C[C@@]1(c2cc(NC(=O)c3ccc(C#N)cn3)ccc2F)Cc2c(ccnc2F)C(N)=N1            %              33
